# Organism: Rattus norvegicus
# experimentNotes: Open TG-GATES - Regimen: Single
# Type: toxicity, organism-based, Sprague-Dawley
# Parameters: regimen Single, gender Male, age 6 weeks
# appliedConditions: in vivo, po, 0 mg/kg, 24 h, tissue Plasma, route gavage, dose level Control
Measured TP values are reported for all entries that follow.

molecule	TP, g/dL
CC(C)Cc1ccc(C(C)C(=O)O)cc1 (configuration not stated)	5.5
CC(=O)N1CCN(c2ccc(OCC3COC(Cn4ccnc4)(c4ccc(Cl)cc4Cl)O3)cc2)CC1 (configuration not stated)	5.6
CC[C@@H](CO)NCCN[C@@H](CC)CO	5.7
O=C(O)COc1nn(Cc2ccccc2)c2ccccc12	5.6
CC(CCc1ccccc1)NCC(O)c1ccc(O)c(C(N)=O)c1 (configuration not stated)	5.7
CC(=O)Nc1ccc2c(c1)Cc1ccccc1-2	5.4
CCN(CC)N=O	5.4

----------
# Species on record: Rattus norvegicus
# experimentNotes: Open TG-GATES - Regimen: Single
# Type: toxicity, organism-based, Sprague-Dawley
# Set-up: regimen Single, gender Male, age 6 weeks
# appliedConditions: in vivo, po, 0 mg/kg, 6 h, tissue Plasma, route gavage, dose level Control
Measured PL values are reported for all entries that follow.
endpoint: PL (mg/dL)

molecule	reported
CC(CCc1ccccc1)NCC(O)c1ccc(O)c(C(N)=O)c1 (configuration not stated)	136.4
CCN(CC)N=O	141.6
CC(=O)N1CCN(c2ccc(OCC3COC(Cn4ccnc4)(c4ccc(Cl)cc4Cl)O3)cc2)CC1 (configuration not stated)	124.2
CC(=O)Nc1ccc2c(c1)Cc1ccccc1-2	139
CC[C@@H](CO)NCCN[C@@H](CC)CO	134.8
CC(C)Cc1ccc(C(C)C(=O)O)cc1 (configuration not stated)	132.2
O=C(O)COc1nn(Cc2ccccc2)c2ccccc12	135.6

----------
# Species on record: Rattus norvegicus
# experimentNotes: Open TG-GATES - Regimen: Single
# Format: toxicity, organism-based, Sprague-Dawley
# Design: regimen Single, gender Male, age 6 weeks
# appliedConditions: in vivo, po, 0 mg/kg, 24 h, tissue Plasma, route gavage, dose level Control
Measured RALB values are reported for all entries that follow.

compound	RALB, g/dL
CC(C)Cc1ccc(C(C)C(=O)O)cc1 (configuration not stated) [IBUPROFEN]	3.1
CC(=O)N1CCN(c2ccc(OCC3COC(Cn4ccnc4)(c4ccc(Cl)cc4Cl)O3)cc2)CC1 (configuration not stated) [KETOCONAZOLE]	3.1
O=C(O)COc1nn(Cc2ccccc2)c2ccccc12 [BENDAZAC]	3.7
CC[C@@H](CO)NCCN[C@@H](CC)CO [ETHAMBUTOL]	3
CC(=O)Nc1ccc2c(c1)Cc1ccccc1-2 [2-ACETYLAMINOFLUORENE]	3.4
CCN(CC)N=O [N-NITROSODIETHYLAMINE]	3.3
CC(CCc1ccccc1)NCC(O)c1ccc(O)c(C(N)=O)c1 (configuration not stated) [LABETALOL]	2.7

----------
# Species: Rattus norvegicus
# experimentNotes: Open TG-GATES - Regimen: Daily Repeat
# Format: toxicity, organism-based, Sprague-Dawley
# Design: regimen Daily Repeat, gender Male, age 6 weeks
# appliedConditions: in vivo, po, 0 mg/kg, […], tissue Kidney, route gavage, dose level Control, time 14 day
Measured KIDNEY_R values are reported for all entries that follow.

molecule	KIDNEY_R [g]
CC(=O)N1CCN(c2ccc(OCC3COC(Cn4ccnc4)(c4ccc(Cl)cc4Cl)O3)cc2)CC1 (stereo not drawn)	1.2
CC(N)=O [ACETAMIDE]	1.3
CC(CCc1ccccc1)NCC(O)c1ccc(O)c(C(N)=O)c1 (stereo not drawn)	1.2
CC(C)Cc1ccc(C(C)C(=O)O)cc1 (stereo not drawn)	1.2
CC(=O)Nc1ccc2c(c1)Cc1ccccc1-2	1.3
CC[C@@H](CO)NCCN[C@@H](CC)CO	1.3
O=C(O)COc1nn(Cc2ccccc2)c2ccccc12	1.3
CCN(CC)N=O	1.3

----------
Measured Mono values are reported for all entries that follow.
# Organism: Rattus norvegicus
# experimentNotes: Open TG-GATES - Regimen: Single
# Assay type: toxicity, organism-based, Sprague-Dawley
# Set-up: regimen Single, gender Male, age 6 weeks
# appliedConditions: in vivo, po, 0 mg/kg, 9 h, tissue Blood, route gavage, dose level Control

molecule	unitString	Mono
O=C(O)COc1nn(Cc2ccccc2)c2ccccc12	%	9.6
CC(=O)Nc1ccc2c(c1)Cc1ccccc1-2	%	2.8
CC[C@@H](CO)NCCN[C@@H](CC)CO	%	2.4
CC(=O)N1CCN(c2ccc(OCC3COC(Cn4ccnc4)(c4ccc(Cl)cc4Cl)O3)cc2)CC1 (configuration not stated)	%	1.8
CC(C)Cc1ccc(C(C)C(=O)O)cc1 (configuration not stated)	%	1.8
CCN(CC)N=O	%	2.6
CC(CCc1ccccc1)NCC(O)c1ccc(O)c(C(N)=O)c1 (configuration not stated)	%	2.4

----------
# Species on record: Rattus norvegicus
# experimentNotes: Open TG-GATES - Regimen: Single
# Assay type: toxicity, organism-based, Sprague-Dawley
# Design: regimen Single, gender Male, age 6 weeks
# appliedConditions: in vivo, po, 0 mg/kg, 24 h, tissue Blood, route gavage, dose level Control

molecule	Lym
CC(C)Cc1ccc(C(C)C(=O)O)cc1 (configuration not stated) [IBUPROFEN]	79.8%
O=C(O)COc1nn(Cc2ccccc2)c2ccccc12 [BENDAZAC]	77.2%
CC[C@@H](CO)NCCN[C@@H](CC)CO [ETHAMBUTOL]	82.4%
CC(=O)N1CCN(c2ccc(OCC3COC(Cn4ccnc4)(c4ccc(Cl)cc4Cl)O3)cc2)CC1 (configuration not stated) [KETOCONAZOLE]	77.6%
CC(CCc1ccccc1)NCC(O)c1ccc(O)c(C(N)=O)c1 (configuration not stated) [LABETALOL]	78.2%
CCN(CC)N=O [N-NITROSODIETHYLAMINE]	82.6%
CC(=O)Nc1ccc2c(c1)Cc1ccccc1-2 [2-ACETYLAMINOFLUORENE]	82%

----------
# Organism: Rattus norvegicus
# experimentNotes: Open TG-GATES - Regimen: Daily Repeat
# Assay type: toxicity, organism-based, Sprague-Dawley
# Parameters: regimen Daily Repeat, gender Male, age 6 weeks
# appliedConditions: in vivo, po, 0 mg/kg, […], tissue Blood, route gavage, dose level Control, time 7 day
Measured MCHC values are reported for all entries that follow.
endpoint: MCHC

compound	reported
CC(C)Cc1ccc(C(C)C(=O)O)cc1 (stereo not drawn)	35%
CC(CCc1ccccc1)NCC(O)c1ccc(O)c(C(N)=O)c1 (stereo not drawn)	35.1%
CC(=O)N1CCN(c2ccc(OCC3COC(Cn4ccnc4)(c4ccc(Cl)cc4Cl)O3)cc2)CC1 (stereo not drawn)	34%
O=C(O)COc1nn(Cc2ccccc2)c2ccccc12	34.1%
CCN(CC)N=O	34.9%
CC[C@@H](CO)NCCN[C@@H](CC)CO	34.3%
CC(=O)Nc1ccc2c(c1)Cc1ccccc1-2	35.2%
CC(N)=O [ACETAMIDE]	32.7%

----------
# Organism: Rattus norvegicus
# experimentNotes: Open TG-GATES - Regimen: Daily Repeat
# Type: toxicity, organism-based, Sprague-Dawley
# Design: regimen Daily Repeat, gender Male, age 6 weeks
# appliedConditions: in vivo, po, 0 mg/kg, […], tissue Blood, route gavage, dose level Control, time 14 day
Measured MCHC values are reported for all entries that follow.
endpoint: MCHC (%)

compound	reported
CC[C@@H](CO)NCCN[C@@H](CC)CO	34.2
CC(=O)Nc1ccc2c(c1)Cc1ccccc1-2	34.7
O=C(O)COc1nn(Cc2ccccc2)c2ccccc12	33.8
CC(C)Cc1ccc(C(C)C(=O)O)cc1 (stereo not drawn)	34.7
CCN(CC)N=O	35
CC(N)=O [ACETAMIDE]	33.2
CC(=O)N1CCN(c2ccc(OCC3COC(Cn4ccnc4)(c4ccc(Cl)cc4Cl)O3)cc2)CC1 (stereo not drawn)	34.3
CC(CCc1ccccc1)NCC(O)c1ccc(O)c(C(N)=O)c1 (stereo not drawn)	34.4

----------
# Organism: Rattus norvegicus
# experimentNotes: Open TG-GATES - Regimen: Single
# Assay type: toxicity, organism-based, Sprague-Dawley
# Design: regimen Single, gender Male, age 6 weeks
# appliedConditions: in vivo, po, 0 mg/kg, 6 h, tissue Plasma, route gavage, dose level Control
Measured A/G values are reported for all entries that follow.

mol	A/G
O=C(O)COc1nn(Cc2ccccc2)c2ccccc12	2.2
CCN(CC)N=O	1.6
CC(=O)Nc1ccc2c(c1)Cc1ccccc1-2	1.7
CC[C@@H](CO)NCCN[C@@H](CC)CO	1.2

----------
# Species on record: Rattus norvegicus
# experimentNotes: Open TG-GATES - Regimen: Single
# Type: toxicity, organism-based, Sprague-Dawley
# Set-up: regimen Single, gender Male, age 6 weeks
# appliedConditions: in vivo, po, 0 mg/kg, 3 h, tissue Plasma, route gavage, dose level Control
Measured RALB values are reported for all entries that follow.

compound	RALB
CC(C)Cc1ccc(C(C)C(=O)O)cc1 (configuration not stated) [IBUPROFEN]	3 g/dL
CC[C@@H](CO)NCCN[C@@H](CC)CO [ETHAMBUTOL]	3 g/dL
CC(CCc1ccccc1)NCC(O)c1ccc(O)c(C(N)=O)c1 (configuration not stated) [LABETALOL]	2.6 g/dL
O=C(O)COc1nn(Cc2ccccc2)c2ccccc12 [BENDAZAC]	3.7 g/dL
CC(=O)N1CCN(c2ccc(OCC3COC(Cn4ccnc4)(c4ccc(Cl)cc4Cl)O3)cc2)CC1 (configuration not stated) [KETOCONAZOLE]	2.9 g/dL
CC(=O)Nc1ccc2c(c1)Cc1ccccc1-2 [2-ACETYLAMINOFLUORENE]	3.4 g/dL
CCN(CC)N=O [N-NITROSODIETHYLAMINE]	3.4 g/dL

Data provenance is ChEMBL document CHEMBL3885861.
